Target: PRMT5-MEP50 enzyme complex (Homo sapiens, UniProt O14744)
Construct: 1.25 nM of Full-length (FL)-PRMT5-MEP50 enzyme complex; made in house; host or cells: baculovirus-transfected Sf21 cells
Sequence (O14744 whole entry): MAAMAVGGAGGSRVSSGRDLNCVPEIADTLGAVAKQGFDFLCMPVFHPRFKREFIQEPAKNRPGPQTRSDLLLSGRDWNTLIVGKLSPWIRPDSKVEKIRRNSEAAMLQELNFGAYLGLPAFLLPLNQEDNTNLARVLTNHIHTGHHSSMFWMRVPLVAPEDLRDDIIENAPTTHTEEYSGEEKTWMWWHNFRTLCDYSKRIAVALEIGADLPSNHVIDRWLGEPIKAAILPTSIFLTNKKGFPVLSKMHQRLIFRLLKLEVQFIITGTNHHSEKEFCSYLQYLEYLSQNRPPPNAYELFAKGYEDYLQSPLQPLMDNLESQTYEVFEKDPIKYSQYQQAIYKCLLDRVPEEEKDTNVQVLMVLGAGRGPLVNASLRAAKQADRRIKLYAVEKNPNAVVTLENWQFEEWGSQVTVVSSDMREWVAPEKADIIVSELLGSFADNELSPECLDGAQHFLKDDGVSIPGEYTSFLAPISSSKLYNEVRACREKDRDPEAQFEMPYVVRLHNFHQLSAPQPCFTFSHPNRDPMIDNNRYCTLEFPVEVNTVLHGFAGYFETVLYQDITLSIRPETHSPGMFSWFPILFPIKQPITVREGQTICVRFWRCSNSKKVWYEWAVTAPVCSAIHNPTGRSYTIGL
Sequence (Q9BQA1 whole entry partner): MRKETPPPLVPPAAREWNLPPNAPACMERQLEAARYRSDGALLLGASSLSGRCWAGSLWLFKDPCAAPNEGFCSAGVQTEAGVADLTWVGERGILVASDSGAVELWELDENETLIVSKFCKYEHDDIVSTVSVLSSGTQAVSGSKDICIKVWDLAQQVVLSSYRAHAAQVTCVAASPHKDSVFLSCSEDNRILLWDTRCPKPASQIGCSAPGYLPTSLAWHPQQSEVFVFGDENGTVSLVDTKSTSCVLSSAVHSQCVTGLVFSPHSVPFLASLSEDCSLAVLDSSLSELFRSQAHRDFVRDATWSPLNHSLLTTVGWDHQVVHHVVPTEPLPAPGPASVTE
Assay: PRMT5-MEP50 Enzyme Methylation Assay
Type: biochemical
Settings: second EC50 of 7 parameters biphasic model; recombinant FL-PRMT5-MEP50, biotinylated H4R3(Me1) peptide, 15 μM SAM; read-out: Enzyme Methylation Assay (EC50, nM), second EC50
ASSAY READOUT: EC50 (nM)

* Cc1nc2nc(C(=O)N3CC[C@]4(Cc5ccccc5CN4)[C@H](O)C3)cn2cc1Br | 280

A: O=C(c1cn2cc(C3CC3)cnc2n1)N1CC[C@]2(Cc3ccccc3CN2)[C@H](O)C1
B: COCc1cc(C(F)(F)F)cn2cc(C(=O)N3CC[C@]4(Cc5ccccc5CN4)[C@H](O)C3)nc12
C: CO[C@@H](C)c1cc(Br)cn2cc(C(=O)N3CC[C@]4(Cc5ccccc5CN4)[C@H](O)C3)nc12 (single isomer, unassigned)
[in] Rank entries according to their EC50, from the largest number down. Order the labels as requested and give them as your answer.
[out] B, C, A
(B: 224 nM, C: 114 nM, A: 72.4 nM)

====

Biological target: PRMT5-MEP50 enzyme complex (Homo sapiens)
Construct: 1.25 nM of Full-length (FL)-PRMT5-MEP50 enzyme complex; made in house; host or cells: baculovirus-transfected Sf21 cells
Assay: PRMT5-MEP50 Enzyme Methylation Assay
Type: biochemical
Settings: only EC50 (4 parameters single site sigmoidal model) or first EC50 of 7 parameters biphasic model; recombinant FL-PRMT5-MEP50, biotinylated H4R3(Me1) peptide, 15 μM SAM; read-out: Enzyme Methylation Assay (EC50)
pEC50: −log10 of the molar value.
ASSAY READOUT: pEC50

- CO[C@H](C)c1cc(Br)cn2cc(C(=O)N3CC[C@]4(Cc5ccccc5CN4)[C@H](O)C3)nc12 (single isomer, unassigned): 9.24

P: Cc1nc2nc(C(=O)N3CC[C@]4(Cc5ccccc5CN4)[C@H](O)C3)cn2cc1Br
Q: O=C(c1cn2cc(C3CC3)cnc2n1)N1CC[C@]2(Cc3ccccc3CN2)[C@H](O)C1
[in] Hi there! Just curious which has the higher pEC50 between P and Q . Answer = label.
[out] Q

====

Target: PRMT5 (symmetric dimethylation of arginine (SDMA) of PRMT5 substrates) in MCF-7 cells (Homo sapiens)
Construct: endogenous in cells
Sequence (O14744 whole entry): as the sequence (O14744 whole entry) above
Sequence (Q9BQA1 whole entry partner): as the sequence (Q9BQA1 whole entry partner) above
Assay: PRMT5 Cell Target Engagement (TE) Assay
Conditions: 3 days treatment, nuclear SDMA by high content imaging
ASSAY READOUT: EC50 (nM)

Here's what some known entries look like.
- CO[C@@H](C)c1cc(Br)cn2cc(C(=O)N3CC[C@]4(Cc5ccccc5CN4)[C@H](O)C3)nc12 (single isomer, unassigned): 2.11
- COCc1cc(C(F)(F)F)cn2cc(C(=O)N3CC[C@]4(Cc5ccccc5CN4)[C@H](O)C3)nc12: 6.23
- O=C(c1cn2cc(C3CC3)cnc2n1)N1CC[C@]2(Cc3ccccc3CN2)[C@H](O)C1: 4.42

I: Cc1nc2nc(C(=O)N3CC[C@]4(Cc5ccccc5CN4)[C@H](O)C3)cn2cc1Br
II: CO[C@H](C)c1cc(Br)cn2cc(C(=O)N3CC[C@]4(Cc5ccccc5CN4)[C@H](O)C3)nc12 (single isomer, unassigned)
[in] From the recorded data, which exceeds the other in EC50: I or II ? Identify your pick by its label.
[out] I
